// compounds with log10 of Kd on L-lactate dehydrogenase A chain (Homo sapiens, UniProt P00338), multi-source literature
Note the log scale: values are log10 of Kd expressed in µM.

Form field: reported log10 of Kd of COc1cc(OC[C@@H](O)[C@@H](O)[C@H](O)[C@H](O)CNc2cc(F)cc(-c3ccc(C(=O)O)cn3)c2)c(Cl)cc1NC(=O)CSc1ccccn1 -0.65

Also check COCc1cc(=O)c(O)c([C@@H](CC(N)=O)c2cc3ccccc3n(CC(C)C)c2=O)o1 -0.02

Do the same for COc1cc(OC[C@@H](O)[C@@H](O)[C@H](O)[C@H](O)CNc2cc(F)cc(-c3ccc(C(=O)O)cn3)c2)c(Cl)cc1NC(=O)CSc1ccc(C(=O)O)cn1 please -1.72

Next: COc1cc(OCC(O)CO)c(Cl)cc1NC(=O)CSc1ccc(C(=O)O)cn1 (centres undefined) 2.56

Also, Cc1c(C(=O)Nc2ccccc2)[n+]([O-])cn1-c1ccc2occc(=O)c2c1 please. 0.99

Repeat for the following compound: NS(=O)(=O)c1ccc(Cc2c(-c3ccc(F)c(OC4CC4)c3)nn(-c3nc(C(=O)O)cs3)c2CC2CC2)cc1F -5.40

Please answer likewise for NS(=O)(=O)c1ccc(Cc2c(-c3ccc(F)c(OCc4ccc(C(F)(F)F)o4)c3)nn(-c3nc(C(=O)O)cs3)c2CC2CC2)cc1F -6.00

For COc1ccc(Cl)cc1NC(=O)CSc1ccc(C(=O)O)cn1 then? 2.14

Quick one: Cc1ccc(Oc2cc(-c3nn(-c4nc(C(=O)O)cs4)c(CC4CC4)c3Cc3ccc(S(N)(=O)=O)c(F)c3)ccc2F)cc1 -2.96

// query: NS(=O)(=O)c1ccc(Cc2c(-c3ccc(F)c(C#CCC4CCCC4)c3)nn(-c3nc(C(=O)O)cs3)c2CC2CC2)cc1F -3.91

Input COc1cc(OCCCNC(=O)COc2cc(F)cc(-c3ccc(C(=O)O)cn3)c2)c(Cl)cc1NC(=O)CSc1ccc(C(=O)O)cn1 -0.76

Now give it for COc1cc(OC[C@@H](O)[C@@H](O)[C@H](O)[C@H](O)COc2cc(F)cc(-c3ccc(C(=O)O)cn3)c2)c(Cl)cc1NC(=O)CSc1ccc(C(=O)O)cn1 too. -1.17

Queued: COc1cc(OC[C@@H](O)[C@@H](O)[C@H](O)[C@H](O)CNc2cc(F)cc(-c3ccccn3)c2)c(Cl)cc1NC(=O)CSc1ccc(C(=O)O)cn1 0.47

O=C(O)c1ccc(-c2ccccc2)nc1 , same question. 3.36
